# System: LXRb:RXRa (NR concentration 270 nM, RXRa partner concentration 90 nM)
# measurement_description: PBM binding z-score (relative to random genomic background probes); higher = stronger binding; sequences stand for … in GC…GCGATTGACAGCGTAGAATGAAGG
measurement_name: PBM binding z-score
Field format: numeric only.

INSERT INTO results (sequence_text, measurement_name, val) VALUES
  ('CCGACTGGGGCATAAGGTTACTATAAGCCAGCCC', 'PBM binding z-score', 1.26),
  ('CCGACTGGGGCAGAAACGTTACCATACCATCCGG', 'PBM binding z-score', -0.779),
  ('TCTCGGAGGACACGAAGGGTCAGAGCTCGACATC', 'PBM binding z-score', 1.19),
  ('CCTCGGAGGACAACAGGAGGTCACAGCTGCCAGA', 'PBM binding z-score', 2.82);

For `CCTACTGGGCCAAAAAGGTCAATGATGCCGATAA` , what is its reported PBM binding z-score? 3.86

Please do the same for `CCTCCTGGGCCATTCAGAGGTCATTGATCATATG` as well. 3.46

Please do the same for `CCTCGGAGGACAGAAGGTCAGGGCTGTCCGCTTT` as well. 1.07

Please do the same for `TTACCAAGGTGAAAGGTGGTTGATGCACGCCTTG` as well. 0.171

Please do the same for `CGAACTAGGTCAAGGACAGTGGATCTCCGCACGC` as well. 1.23

Please do the same for `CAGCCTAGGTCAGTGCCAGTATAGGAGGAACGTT` as well. 0.349

###

# Tested on: PPARg:RXRa 30nM:10nM, anti-RXR (NR concentration 30 nM, RXRa partner concentration 10 nM)
# measurement_description: PBM binding z-score (relative to random genomic background probes); higher = stronger binding; sequences stand for … in GC…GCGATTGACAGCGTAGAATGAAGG
measurement_name: PBM binding z-score

INSERT INTO measurements (sequence_text, val) VALUES
  ('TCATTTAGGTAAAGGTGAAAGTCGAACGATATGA', 4.39),
  ('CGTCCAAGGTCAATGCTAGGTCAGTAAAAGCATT', 1.9),
  ('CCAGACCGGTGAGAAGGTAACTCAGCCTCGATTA', -0.601),
  ('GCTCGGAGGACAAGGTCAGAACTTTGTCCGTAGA', 0.0801),
  ('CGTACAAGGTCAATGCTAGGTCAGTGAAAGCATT', 2.08);

Query sequence follows.
For `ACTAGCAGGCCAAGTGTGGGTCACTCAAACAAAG` , what is its reported PBM binding z-score? -0.102

###

# Test system: PPARa:RXRa (NR concentration 270 nM, RXRa partner concentration 90 nM)
# measurement_description: PBM binding z-score (relative to random genomic background probes); higher = stronger binding; sequences stand for … in GC…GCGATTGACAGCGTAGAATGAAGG
measurement_name: PBM binding z-score
Field format: numeric only.

INSERT INTO assay_data (sequence_text, measurement_name, val) VALUES
  ('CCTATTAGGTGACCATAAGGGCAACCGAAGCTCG', 'PBM binding z-score', 1.81),
  ('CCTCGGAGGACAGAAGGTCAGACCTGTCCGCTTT', 'PBM binding z-score', 1.9),
  ('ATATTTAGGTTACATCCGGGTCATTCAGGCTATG', 'PBM binding z-score', 4.28);

For `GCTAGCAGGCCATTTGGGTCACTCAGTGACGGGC` , what is its reported PBM binding z-score? 1.14

Please do the same for `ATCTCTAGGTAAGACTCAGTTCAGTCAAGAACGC` as well. 0.293

###

# Tested on: RARb homodimer (NR concentration 270 nM)
# measurement_description: PBM binding z-score (relative to random genomic background probes); higher = stronger binding; sequences stand for … in GC…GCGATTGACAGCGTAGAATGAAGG
Grouping key: PBM binding z-score. Bins: range A = under 0.8, range B = from 0.8 up to 3, range C = 3 and over

Which band does `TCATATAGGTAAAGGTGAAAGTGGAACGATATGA` fall in? range B

Please do the same for `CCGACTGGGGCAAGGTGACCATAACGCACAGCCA` as well. range B

Please do the same for `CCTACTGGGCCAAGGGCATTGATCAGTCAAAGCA` as well. range A

Please do the same for `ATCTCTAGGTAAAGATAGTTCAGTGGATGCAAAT` as well. range B

Please do the same for `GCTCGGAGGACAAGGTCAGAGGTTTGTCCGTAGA` as well. range C

Please do the same for `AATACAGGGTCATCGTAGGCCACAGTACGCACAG` as well. range C

Please do the same for `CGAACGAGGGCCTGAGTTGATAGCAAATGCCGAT` as well. range A

Please do the same for `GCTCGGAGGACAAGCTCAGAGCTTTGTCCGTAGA` as well. range A

###

# Test system: VDR homodimer (NR concentration 270 nM)
# measurement_description: PBM binding z-score (relative to random genomic background probes); higher = stronger binding; sequences stand for … in GC…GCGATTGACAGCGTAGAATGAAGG
measurement_name: PBM binding z-score
Field format: numeric only.

Example results:
INSERT INTO measurements (sequence_text, val) VALUES
  ('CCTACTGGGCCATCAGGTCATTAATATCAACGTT', 1.56),
  ('ATCGAAAGGTCGAGGTGAGGATAGAGAAAGGGAA', 0.466),
  ('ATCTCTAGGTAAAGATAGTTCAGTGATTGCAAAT', 0.789),
  ('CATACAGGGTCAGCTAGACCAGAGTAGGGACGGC', 0.573),
  ('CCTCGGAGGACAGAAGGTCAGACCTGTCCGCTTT', 0.229),
  ('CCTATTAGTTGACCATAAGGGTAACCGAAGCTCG', 1.2);

Query sequence follows.
For `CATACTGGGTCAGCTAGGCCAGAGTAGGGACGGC` , what is its reported PBM binding z-score? -0.0161

###

Examples of sequences with documented PBM binding z-score follow.
# System: LXRb homodimer (NR concentration 270 nM)
# measurement_description: PBM binding z-score (relative to random genomic background probes); higher = stronger binding; sequences stand for … in GC…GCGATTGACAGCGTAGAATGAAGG
Field format: numeric only.

Example results:
INSERT INTO measurements (sequence_text, measurement_name, val) VALUES
  ('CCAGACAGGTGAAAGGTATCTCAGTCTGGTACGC', 'PBM binding z-score', -0.633),
  ('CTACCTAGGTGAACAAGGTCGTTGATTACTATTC', 'PBM binding z-score', -0.219),
  ('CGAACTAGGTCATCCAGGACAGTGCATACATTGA', 'PBM binding z-score', 0.0357),
  ('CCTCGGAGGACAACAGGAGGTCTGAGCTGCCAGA', 'PBM binding z-score', -1),
  ('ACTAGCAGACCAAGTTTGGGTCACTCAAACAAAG', 'PBM binding z-score', -0.744);

Query sequence follows.
Look up PBM binding z-score with LXRb homodimer (NR concentration 270 nM) for this sequence: `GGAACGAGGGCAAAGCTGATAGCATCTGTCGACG` -0.711

###

# Test system: PPARg homodimer (NR concentration 180 nM)
# measurement_description: PBM binding z-score (relative to random genomic background probes); higher = stronger binding; sequences stand for … in GC…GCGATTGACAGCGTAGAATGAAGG
Examples of sequences with documented PBM binding z-score follow.
Field format: numeric only.

Example results:
INSERT INTO assay_data (sequence_text, val) VALUES
  ('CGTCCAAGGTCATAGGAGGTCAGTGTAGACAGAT', 4.52),
  ('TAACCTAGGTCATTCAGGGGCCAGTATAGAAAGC', 2.96);

For `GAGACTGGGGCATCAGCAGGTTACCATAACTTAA` , what is its reported PBM binding z-score? 0.579

Please do the same for `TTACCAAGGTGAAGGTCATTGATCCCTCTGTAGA` as well. 2.06

Please do the same for `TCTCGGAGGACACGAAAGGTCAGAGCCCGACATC` as well. 3.83

###

Examples of sequences with documented PBM binding z-score follow.
# Tested on: PXR homodimer (NR concentration 270 nM)
# measurement_description: PBM binding z-score (relative to random genomic background probes); higher = stronger binding; sequences stand for … in GC…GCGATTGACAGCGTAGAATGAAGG
Field format: numeric only.

Example results:
INSERT INTO assay_data (sequence_text, measurement_name, val) VALUES
  ('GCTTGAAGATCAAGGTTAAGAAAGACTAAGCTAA', 'PBM binding z-score', -0.655),
  ('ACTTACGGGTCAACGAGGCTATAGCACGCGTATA', 'PBM binding z-score', 0.421),
  ('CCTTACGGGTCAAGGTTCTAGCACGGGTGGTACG', 'PBM binding z-score', -0.35),
  ('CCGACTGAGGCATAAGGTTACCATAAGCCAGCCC', 'PBM binding z-score', -0.308),
  ('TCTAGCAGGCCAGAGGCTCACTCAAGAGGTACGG', 'PBM binding z-score', -1.3);

For `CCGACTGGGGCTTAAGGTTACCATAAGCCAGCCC` , what is its reported PBM binding z-score? -0.395

Reference source for all entries: the supplement of paper PMC6555819
